Experiment: qHTS Assay for Lipid Storage Modulators in Drosophila S3 Cells
Details: BODIPY lipid droplet fluorescence, 18-24 h, cells fed with added oleic acid; series mostly up to 46.1 µM
Screen size: about 320,000 compounds; about 2,100 (0.66%) were called active. Inconclusive results (about 53%) are left out. Calls come from the whole dose curve; as a rule, active = well fitted inhibition curve with a large enough effect in the signal ratio, with a control signal flat (not every such curve was filed as active); inconclusive = small, poorly fitted or top-dose-only effect, or effect the other way, or a change in a side signal; inactive = flat fitted curve, though single readings scatter; the % refers to the signal ratio. For the sample, actives were picked, then their nearest neighbours and some compounds at random.
Answer with one of the outcomes given here: YES = active, NO = inactive

Request: Look up the recorded call for CC12CN3CCN(CC(C3)/C1=N/NC(N)=O)C2 in this test.
Result: NO

Request: Look up the recorded call for CCCCn1c(=O)c(C(=O)NCCc2ccccc2)c(O)c2ccccc21 in this test.
Result: NO

Request: Look up the recorded call for Cn1c(O)c(C=NC2CCN(Cc3ccccc3)CC2)c(=O)[nH]c1=O in this test.
Result: NO

---
Request: Look up the recorded call for COc1cc(/C=C2\C(=O)NC(=O)N(c3ccc(C)cc3)C2=O)cc(OC)c1O in this test.
Result: NO

Request: Look up the recorded call for Cc1cc(OCC(=O)NCc2ccncc2)c2c3c(c(=O)oc2c1)CCC3 in this test.
Result: NO

Request: Look up the recorded call for COc1ccc(C(CC(=O)N2CCC3(CC2)OCCO3)NS(=O)(=O)c2ccc(F)cc2)cc1 (centres undefined) in this test.
Result: NO

Request: Look up the recorded call for O=P(Nc1cccc(F)c1)(Oc1ccccc1F)Oc1ccccc1F in this test.
Result: NO

Request: Look up the recorded call for CCN(CC)C(=O)c1ccc(NC(=O)c2ccc(-c3nn(C)c(=O)c4ccccc34)cc2)cc1 in this test.
Result: NO

###

Assay: qHTS Assay for Lipid Storage Modulators in Drosophila S3 Cells;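 for cell number change: cells counted by Cell Tracker Red CMTPX staining in the red channel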
Conditions: BODIPY lipid droplet fluorescence, 18-24 h, cells fed with added oleic acid; measured here: cell count max response
Out of some 320,000 compounds screened, about 2,100 (0.66%) were called active. Another 53% or so got no clear call; they are omitted. What follows is part of a selection rich in actives, with near analogues and random picks from the rest.
assay endpoint: cell number change (%)
Give the value in % but do not write % after it.

Request: I'd like to know its cell number change. The compound in question is Cc1cc(C(=O)Nc2ccccc2)nn1C(C)(C)C
Result: 13.1

Request: I'd like to know its cell number change. The compound in question is CN1CCN(c2ccc(N)c(N3CCN(C)CC3)c2)CC1
Result: 19

Request: I'd like to know its cell number change. The compound in question is COc1ccc(CC(C)NCCc2ccc(OC)c(OC)c2)cc1 (stereo not given)
Result: 5.07

Request: I'd like to know its cell number change. The compound in question is CCN(CC)CCN=Cc1c(O)n(CCc2ccccc2)c(=O)[nH]c1=O
Result: 12.9

Request: I'd like to know its cell number change. The compound in question is CN1CCN(c2ccc(C=O)cc2)CC1
Result: -17.6

---
Request: I'd like to know its cell number change. The compound in question is COc1cccc2cc(-c3cc(=O)oc4ccc(OC(=O)N(C)C)cc34)oc12
Result: -3.98

Request: I'd like to know its cell number change. The compound in question is CC1=C(C(=O)Nc2ccccc2)SCCO1
Result: -0.928

Request: I'd like to know its cell number change. The compound in question is COc1cc(/C=C2\C(=O)NC(=O)N(c3ccc(C)cc3)C2=O)cc(OC)c1O
Result: 15

Request: I'd like to know its cell number change. The compound in question is [N-]=[N+]=NCc1cn2cccnc2n1
Result: -11.7

Request: I'd like to know its cell number change. The compound in question is O=C1NC(=O)C(CCc2ccncc2)(Cc2ccc(OCc3ccccc3)cc2)C(=O)N1
Result: 9.1

Request: I'd like to know its cell number change. The compound in question is COc1ccc(-n2c(CN3CCOCC3)nc3ccccc3c2=O)c(OC)c1
Result: -3.52
